Each recorded value in this set is attributed to patent US20130252951A1.

In this section, each of the compounds is paired with its reported Ki.
- Measured Target: human CCR2 (Homo sapiens, UniProt P41597)
- Sequence (P41597 whole entry): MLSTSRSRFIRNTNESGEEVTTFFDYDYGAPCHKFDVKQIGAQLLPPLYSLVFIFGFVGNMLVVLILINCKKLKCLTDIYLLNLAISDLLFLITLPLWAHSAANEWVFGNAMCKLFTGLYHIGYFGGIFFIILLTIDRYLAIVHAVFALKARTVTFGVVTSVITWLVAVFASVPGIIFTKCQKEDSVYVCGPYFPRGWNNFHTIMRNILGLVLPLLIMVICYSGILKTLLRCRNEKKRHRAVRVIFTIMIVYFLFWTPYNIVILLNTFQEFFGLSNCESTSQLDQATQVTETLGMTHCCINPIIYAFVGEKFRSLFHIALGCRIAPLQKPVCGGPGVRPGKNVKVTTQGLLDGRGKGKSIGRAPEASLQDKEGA
- Test Details: CCR2 functional calcium assay (FLIPR calcium flux, hMCP-1 challenge)
- Format: cell-based
- Parameters: expressed in transfected cells; host or cells: HEK293 EBNA cells
- Run Parameters: HEK293 EBNA cells transfected with human CCR2, hMCP-1 challenge; read-out: Functional CCR2 fKi
- Excerpt: The CCR2 receptor couples through the Gi/Gq signaling pathway and results in activation of calcium mobilization. The functional activity of test compounds was routinely tested by measuring the ability of compounds to antagonize CCR2 activity in a dose dependent manner, in HEK293 EBNA cells transfected with the human CCR2 receptor (hMCP-1 challenge), using a calcium flux Fluorescent Imaging Plate Reader FLIPR assay. Non-transfected HEK293 EBNA cells were used as control of non-specific response. […]

Examples from the recorded data:
# Compound, Test Value
measured = [
    ("Cc1nc2c(C#N)cnn2c(O)c1Cc1ccc(Cl)cc1", "100 to 1000 nM"),
    ("Oc1c(Cc2ccc(Cl)c(Cl)c2)c(C2CCC2)nc2ccnn12", "< 10 nM"),
    ("Cc1nc2ccnn2c(O)c1Nc1cccc(F)c1", "100 to 1000 nM"),
    ("Cc1nc2ccnn2c(O)c1Oc1ccc(Cl)c(Cl)c1", "10 to 100 nM"),
]

Please tell me: Ki of `COC(=O)c1nc2ccnn2c(O)c1Cc1ccc(Cl)cc1` , system human CCR2 (Homo sapiens, UniProt P41597)? 10 to 100 nM

Please tell me: Ki of `Oc1c(Cc2ccc(C(F)(F)F)cc2)c(C2CC2)nc2ccnn12` , system human CCR2 (Homo sapiens, UniProt P41597)? < 10 nM

Please tell me: Ki of `Cc1nc2c(C(=O)N(C)C)cnn2c(O)c1Cc1ccc(Cl)cc1` , system human CCR2 (Homo sapiens, UniProt P41597)? 100 to 1000 nM

Please tell me: Ki of `CC(=O)c1nc2ccnn2c(O)c1Cc1cccc(F)c1` , system human CCR2 (Homo sapiens, UniProt P41597)? 10 to 100 nM

Please tell me: Ki of `Cc1nc2ccnn2c(O)c1N(C)c1cccc(F)c1` , system human CCR2 (Homo sapiens, UniProt P41597)? 100 to 1000 nM

Please tell me: Ki of `CCc1nc2ccnn2c(O)c1Oc1ccc(F)c(F)c1` , system human CCR2 (Homo sapiens, UniProt P41597)? < 10 nM

Please tell me: Ki of `COCCCNC(=O)c1cnn2c(O)c(Cc3ccccc3)c(C)nc12` , system human CCR2 (Homo sapiens, UniProt P41597)? 100 to 1000 nM
